Reported MIC by item:
# Tested on: Escherichia coli K-12 ML 1629
# TEST DETAILS: microbe, parasite or virus in culture
# Type: cell-based
# PROTOCOL CONDITIONS: K12ML1629; Escherichia coli K-12 ML 1629; resistance mechanism APH(3')-I; Mueller-Hinton agar, 37° C; read-out: MIC
Field: numeric (µg/mL). Do not append units.

Guide cases for MIC, answers given:
{"COMPOUND": "CN[C@@H]1[C@@H](O)[C@@H](O[C@H]2[C@H](N)C[C@H](N)[C@@H](O[C@H]3O[C@H]([C@@H](C)NC)CC[C@H]3N)C2(F)F)OC[C@]1(C)O", "UNIT ANNOTATION": "µg/mL", "MIC": 1.56}
{"COMPOUND": "CN[C@@H]1[C@@H](O)[C@@H](O[C@H]2[C@H](NC(=O)[C@@H](O)CCN)C[C@H](N)[C@@H](O[C@H]3O[C@H]([C@@H](C)NC)CC[C@H]3N)C2(F)F)OC[C@]1(C)O", "UNIT ANNOTATION": "µg/mL", "MIC": 1.56}
{"COMPOUND": "NCC[C@H](O)C(=O)N[C@@H]1C[C@H](N)[C@@H](O[C@H]2O[C@H](CN)CC[C@H]2N)C(F)(F)[C@H]1O[C@H]1O[C@H](CO)[C@@H](O)[C@H](N)[C@H]1O", "UNIT ANNOTATION": "µg/mL", "MIC": 0.39}

Note: attention shifts to another entry.
Asked: Tell me its MIC given NCC[C@H](O)C(=O)N[C@@H]1C[C@H](N)[C@@H](O[C@H]2O[C@H](CN)[C@@H](O)[C@H](O)[C@H]2O)[C@H](O)[C@H]1O[C@H]1O[C@H](CO)[C@@H](O)[C@H](N)[C@H]1O [Amikacin, amikacin, reference compound] as the entry.
Given back: 1.56
